Assay: Solubility of carbamazepine in medium
Format: physicochemical
Conditions: 0.5% sds in water; read-out: Drug solubility

Molecule: NC(=O)N1c2ccccc2C=Cc2ccccc21 [carbamazepine]
solubility (µg/mL): 1470
